# STUDY SYSTEM: β-secretase (BACE) (Homo sapiens, UniProt P56817)
# Construct: purchased Panvera
# Sequence (P56817 46-501): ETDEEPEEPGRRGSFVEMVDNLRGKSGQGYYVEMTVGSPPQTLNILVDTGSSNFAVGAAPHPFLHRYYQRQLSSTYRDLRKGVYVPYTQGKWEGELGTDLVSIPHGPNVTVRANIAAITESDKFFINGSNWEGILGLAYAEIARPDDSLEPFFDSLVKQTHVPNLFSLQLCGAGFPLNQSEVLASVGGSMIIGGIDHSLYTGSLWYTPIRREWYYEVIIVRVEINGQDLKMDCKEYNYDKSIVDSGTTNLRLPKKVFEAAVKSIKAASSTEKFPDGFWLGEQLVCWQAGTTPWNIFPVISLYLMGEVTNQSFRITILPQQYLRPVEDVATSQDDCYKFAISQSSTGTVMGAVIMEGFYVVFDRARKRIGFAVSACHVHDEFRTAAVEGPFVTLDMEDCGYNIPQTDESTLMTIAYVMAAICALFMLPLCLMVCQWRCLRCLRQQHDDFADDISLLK
# PROTOCOL SUMMARY: BACE FS1 % Inhibition Assay
# Type: biochemical
# EXPERIMENTAL SETUP: 1 μM test compound
EXPERIMENTAL ENDPOINT: % Inhibition (FS) (%)

Consider the following illustrative entries.
### Prompt Identify measured % Inhibition (FS) corresponding to `CSc1ccccc1-c1ccc2c(c1)CN(CCNC(=O)C1CCCCC1)C(N)=N2`
### Response 30

### Prompt Identify measured % Inhibition (FS) corresponding to `CC(C)CC(=O)NCCN1Cc2cc(Oc3ccccc3)ccc2N=C1N`
### Response 86

[1] COc1ccccc1-c1ccc2c(c1)CN(C(CCC(=O)N(C)C1CCCCC1)C1CCCCC1)C(N)=N2 (centres unmarked)
[2] NC1=Nc2ccc(-c3ccccc3F)cc2CN1CCNC(=O)C1CCC1
### Prompt Two entries are listed, 1 and 2 . Which one carries the higher % Inhibition (FS)? Select an item and report its label.
### Response 1
